# assay.protocol: Pharmacokinetics and bioavailability in rats after single oral and intravenous doses
# Assay type: in vivo, Sprague-Dawley rats
# condition: male, Sprague-Dawley, plasma; rat, intravenous 2 mg/kg
value.kind: half-life (h)

{"compound": "Nc1nc2[nH]c(CC(=O)NCC(=O)N[C@@H](CCC(=O)O)C(=O)O)cc2c(=O)[nH]1 [glytrexate]", "value.kind": "half-life", "units.of.measure": "h", "reported.result": 2.78}

----------
# assay.protocol: Pharmacokinetics and bioavailability in rats after single oral and intravenous doses
# Type: in vivo, Sprague-Dawley rats
# condition: male, Sprague-Dawley, plasma; rat, intravenous 2 mg/kg

{"compound": "Nc1nc2[nH]c(CC(=O)NCC(=O)N[C@@H](CCC(=O)O)C(=O)O)cc2c(=O)[nH]1 [glytrexate]", "AUC(0-inf) / ng·h/mL": 10200}

----------
# assay.protocol: Pharmacokinetics and bioavailability in rats after single oral and intravenous doses
# Format: in vivo, Sprague-Dawley rats
# condition: male, Sprague-Dawley, rat, plasma, po, 50 mg/kg, oral 50 mg/kg

{"molecule": "Nc1nc2[nH]c(CC(=O)NCC(=O)N[C@@H](CCC(=O)O)C(=O)O)cc2c(=O)[nH]1 [glytrexate]", "CL/F / mL/min/kg": 282}

----------
# assay.protocol: Pharmacokinetics and bioavailability in rats after single oral and intravenous doses
# Type: in vivo, Sprague-Dawley rats
# condition: male, Sprague-Dawley, plasma; rat, oral 50 mg/kg
value.kind: half-life (h)

{"molecule": "Nc1nc2[nH]c(CC(=O)NCC(=O)N[C@@H](CCC(=O)O)C(=O)O)cc2c(=O)[nH]1 [glytrexate]", "reported.result": 2.66}

----------
# assay.protocol: Pharmacokinetics and bioavailability in rats after single oral and intravenous doses
# Assay type: in vivo, Sprague-Dawley rats
# condition: male, Sprague-Dawley, plasma; rat, oral 50 mg/kg

{"compound": "Nc1nc2[nH]c(CC(=O)NCC(=O)N[C@@H](CCC(=O)O)C(=O)O)cc2c(=O)[nH]1 [glytrexate]", "units.of.measure": "ng·h/mL", "AUC(0-inf)": 2960}

----------
# assay.protocol: Plasma protein binding rate by ultrafiltration, rat plasma
# Assay type: in vitro ADME
# condition: 5 μg/ml, 37°C, 30 min incubation, ultrafiltration
value.kind: fraction unbound at 30 min, 5 μg/ml

{"compound": "Nc1nc2[nH]c(CC(=O)NCC(=O)N[C@@H](CCC(=O)O)C(=O)O)cc2c(=O)[nH]1 [glytrexate]", "value.kind": "fraction unbound at 30 min, 5 μg/ml", "reported.result": 0.863}

----------
# assay.protocol: Pharmacokinetics and bioavailability in rats after single oral and intravenous doses
# Format: in vivo, Sprague-Dawley rats
# condition: male, Sprague-Dawley, rat, plasma, po, 50 mg/kg, oral 50 mg/kg, read-out: Tmax
# Method: Pharmacokinetic and bioavailability studies were carried out in twenty-four male Sprague–Dawley rats. The rats were randomly divided into four groups (n = 6). All of them were fasted for 12 h before administration and were allowed to drink freely. […] The plasma samples obtained were processed using the method described in Section 2.4 and then analyzed using the established LC–MS/MS method. […]

{"compound": "Nc1nc2[nH]c(CC(=O)NCC(=O)N[C@@H](CCC(=O)O)C(=O)O)cc2c(=O)[nH]1 [glytrexate]", "Tmax / min": 30}

----------
# assay.protocol: Pharmacokinetics and bioavailability in rats after single oral and intravenous doses
# Format: in vivo, Sprague-Dawley rats
# condition: male, Sprague-Dawley, rat, plasma, po, 25 mg/kg, oral 25 mg/kg

{"compound": "Nc1nc2[nH]c(CC(=O)NCC(=O)N[C@@H](CCC(=O)O)C(=O)O)cc2c(=O)[nH]1 [glytrexate]", "CL/F, mL/min/kg": 556}

----------
# assay.protocol: Pharmacokinetics and bioavailability in rats after single oral and intravenous doses
# Assay type: in vivo, Sprague-Dawley rats
# condition: male, Sprague-Dawley, plasma; rat, oral 50 mg/kg; read-out: AUC0-tn
value.kind: AUC (ng·h/mL)

{"molecule": "Nc1nc2[nH]c(CC(=O)NCC(=O)N[C@@H](CCC(=O)O)C(=O)O)cc2c(=O)[nH]1 [glytrexate]", "reported.result": 2960}

----------
# assay.protocol: Pharmacokinetics and bioavailability in rats after single oral and intravenous doses
# Type: in vivo, Sprague-Dawley rats
# condition: male, Sprague-Dawley, plasma; rat, oral 12.5 mg/kg

{"compound": "Nc1nc2[nH]c(CC(=O)NCC(=O)N[C@@H](CCC(=O)O)C(=O)O)cc2c(=O)[nH]1 [glytrexate]", "units.of.measure": "h", "half-life": 2.15}

----------
# assay.protocol: Pharmacokinetics and bioavailability in rats after single oral and intravenous doses
# Type: in vivo, Sprague-Dawley rats
# condition: male, Sprague-Dawley, plasma; rat, oral 25 mg/kg

{"compound": "Nc1nc2[nH]c(CC(=O)NCC(=O)N[C@@H](CCC(=O)O)C(=O)O)cc2c(=O)[nH]1 [glytrexate]", "half-life, min": 135}

----------
# assay.protocol: Pharmacokinetics and bioavailability in rats after single oral and intravenous doses
# Format: in vivo, Sprague-Dawley rats
# condition: male, Sprague-Dawley, plasma; rat, oral 12.5 mg/kg; read-out: AUC0-tn

{"compound": "Nc1nc2[nH]c(CC(=O)NCC(=O)N[C@@H](CCC(=O)O)C(=O)O)cc2c(=O)[nH]1 [glytrexate]", "units.of.measure": "ng·h/mL", "AUC": 362}

----------
# assay.protocol: Plasma protein binding rate by ultrafiltration, human plasma
# Format: in vitro ADME
# condition: over 5, 10 and 20 μg/ml

{"molecule": "Nc1nc2[nH]c(CC(=O)NCC(=O)N[C@@H](CCC(=O)O)C(=O)O)cc2c(=O)[nH]1 [glytrexate]", "fraction unbound": "~0.75"}

----------
# assay.protocol: Pharmacokinetics and bioavailability in rats after single oral and intravenous doses
# Assay type: in vivo, Sprague-Dawley rats
# condition: male, Sprague-Dawley, plasma; rat, oral 25 mg/kg
value.kind: AUC(0-inf)

{"compound": "Nc1nc2[nH]c(CC(=O)NCC(=O)N[C@@H](CCC(=O)O)C(=O)O)cc2c(=O)[nH]1 [glytrexate]", "reported.result": "0.75 µg·h/mL"}

----------
# assay.protocol: Pharmacokinetics and bioavailability in rats after single oral and intravenous doses
# Type: in vivo, Sprague-Dawley rats
# condition: male, Sprague-Dawley, plasma; rat, oral 12.5 mg/kg

{"molecule": "Nc1nc2[nH]c(CC(=O)NCC(=O)N[C@@H](CCC(=O)O)C(=O)O)cc2c(=O)[nH]1 [glytrexate]", "AUC(0-inf) (ng·h/mL)": 370}

----------
# assay.protocol: Pharmacokinetics and bioavailability in rats after single oral and intravenous doses
# Type: in vivo, Sprague-Dawley rats
# condition: male, Sprague-Dawley, rat, plasma, po, 50 mg/kg, single oral administration 12.5, 25 and 50 mg/kg, read-out: Tmax (time of peak blood concentration)
value.kind: Tmax (min)

{"compound": "Nc1nc2[nH]c(CC(=O)NCC(=O)N[C@@H](CCC(=O)O)C(=O)O)cc2c(=O)[nH]1 [glytrexate]", "reported.result": 30}

----------
# assay.protocol: Pharmacokinetics and bioavailability in rats after single oral and intravenous doses
# Format: in vivo, Sprague-Dawley rats
# condition: male, Sprague-Dawley, plasma; rat, oral 50 mg/kg; read-out: MRT0-t
value.kind: MRT last (h)

{"compound": "Nc1nc2[nH]c(CC(=O)NCC(=O)N[C@@H](CCC(=O)O)C(=O)O)cc2c(=O)[nH]1 [glytrexate]", "reported.result": 3.16}

----------
# assay.protocol: Plasma protein binding rate by ultrafiltration, human plasma
# Format: in vitro ADME
# condition: 5 μg/ml, 37°C, 30 min incubation, ultrafiltration
value.kind: fraction unbound at 30 min, 5 μg/ml

{"compound": "Nc1nc2[nH]c(CC(=O)NCC(=O)N[C@@H](CCC(=O)O)C(=O)O)cc2c(=O)[nH]1 [glytrexate]", "value.kind": "fraction unbound at 30 min, 5 μg/ml", "reported.result": 0.758}

----------
# assay.protocol: Plasma protein binding rate by ultrafiltration, rat plasma
# Type: in vitro ADME
# condition: over 5, 10 and 20 μg/ml
value.kind: fraction unbound at 30 min

{"compound": "Nc1nc2[nH]c(CC(=O)NCC(=O)N[C@@H](CCC(=O)O)C(=O)O)cc2c(=O)[nH]1 [glytrexate]", "reported.result": "> 0.7"}

----------
# assay.protocol: Pharmacokinetics and bioavailability in rats after single oral and intravenous doses
# Assay type: in vivo, Sprague-Dawley rats
# condition: male, Sprague-Dawley, plasma; rat, oral 25 mg/kg; read-out: MRT0-t
value.kind: MRT last (h)

{"molecule": "Nc1nc2[nH]c(CC(=O)NCC(=O)N[C@@H](CCC(=O)O)C(=O)O)cc2c(=O)[nH]1 [glytrexate]", "units.of.measure": "h", "reported.result": 2.95}

----------
# assay.protocol: Pharmacokinetics and bioavailability in rats after single oral and intravenous doses
# Assay type: in vivo, Sprague-Dawley rats
# condition: male, Sprague-Dawley, plasma; rat, intravenous 2 mg/kg; read-out: AUC0-tn

{"molecule": "Nc1nc2[nH]c(CC(=O)NCC(=O)N[C@@H](CCC(=O)O)C(=O)O)cc2c(=O)[nH]1 [glytrexate]", "AUC / ng·h/mL": 10200}
